Below, IC50 values reported for Vascular endothelial growth factor receptor 1 (Homo sapiens, UniProt P17948) across several publications.

Some entries whose results are on file:
{"columns": ["Compound", "Tested Target", "Result"],
 "data": [
  ["FC(F)(F)c1cccc(-n2cc(-c3ccccc3NCc3ccccn3)nn2)c1", "Vascular endothelial growth factor receptor 1 (Homo sapiens, UniProt P17948)", "> 10000 nM"],
  ["COc1cc2c(Nc3ccc(Br)c(Cl)c3F)ncnc2cc1OC[C@H]1CN2CCOCC2CO1 (some centres undefined)", "Vascular endothelial growth factor receptor 1 (Homo sapiens, UniProt P17948)", "50 to 1000 nM"],
  ["FC(F)(F)c1cccc(Nc2nnc(-c3cccnc3CCc3ccc4[nH]ncc4c3)o2)c1", "Vascular endothelial growth factor receptor 1 (Homo sapiens, UniProt P17948)", "> 10000 nM"]
]}

Lab note: each compound below needs its IC50 filled in.
1. Cn1cnc(NCc2ccc3[nH]ncc3c2)c1-c1nnc(Nc2ccc(Cl)cc2)o1
2. Clc1cccc(-n2cc(-c3ccccc3NCc3ccccn3)nn2)c1
3. FC(F)(F)c1cccc(Nc2nnc(-c3cc4ccccc4nc3CCc3ccncc3)o2)c1
4. c1ccc(-c2cn(-c3ccc4[nH]ncc4c3)nn2)c(NCc2ccncc2)c1
5. Cc1cc(COC(=O)NCc2ccc(-c3cc(NC(=O)c4ccc(OCCN5CCCC5)cc4)[nH]n3)cc2)no1
6. COc1cc2c(Nc3ccc(Cl)c(Cl)c3F)ncnc2cc1OC[C@H]1CN2CCOCC2CO1 (some centres undefined)
7. Cn1cnc(NCc2ccccn2)c1-c1nnc(Nc2ccc(Cl)cc2)o1

OUT:
> 10000 nM
> 10000 nM
> 10000 nM
650 nM
590 nM
50 to 1000 nM
> 10000 nM

###

Record set: IC50 | Vascular endothelial growth factor receptor 1 (Homo sapiens, UniProt P17948) | literature, multiple sources.

Illustrative cases are given below, each with its answer.
{"columns": ["Chemical Structure", "Result"],
 "data": [
  ["Cc1nc(Nc2cc(-c3ccc(CNC(=O)OCc4cccnc4)cc3)n[nH]2)cc(N2CCN(CCO)CC2)n1", "> 1 µM"],
  ["Cc1ccc(NC(=O)Nc2nnc(Sc3ncnc4cc(OCCCN5CCOCC5)ccc34)s2)cc1", "> 1 µM"],
  ["c1ccc2ncc(Nc3nnc(-c4cc5ccccc5nc4CCc4ccncc4)o3)cc2c1", "> 10 µM"]
]}

// switching to the query compound
IN: Item: COc1cc2c(Nc3c(Cl)ccc4c3OCO4)ncnc2cc1OCCCN1CCCCC1 Test system: Vascular endothelial growth factor receptor 1 (Homo sapiens, UniProt P17948) Read-out: IC50 Value: ?
OUT: > 100 µM
